System: Ramos B cells
runDescription: cells
Type: cell-based, human
experimentalSetup: assessed as described in Table 1; read-out: EC50, cell death
assayEndpoint: EC50 (µM)

1) Cc1cc(C2=NC(Cc3ccc4ccccc4c3)C(=O)N(C)c3ccc(Cl)cc32)ccc1O (stereo not shown) [Compound 16]    3

###

testSystem: peripheral benzodiazepine receptor (PBR) (Homo sapiens)
Sequence (P30536 whole entry, species assumed): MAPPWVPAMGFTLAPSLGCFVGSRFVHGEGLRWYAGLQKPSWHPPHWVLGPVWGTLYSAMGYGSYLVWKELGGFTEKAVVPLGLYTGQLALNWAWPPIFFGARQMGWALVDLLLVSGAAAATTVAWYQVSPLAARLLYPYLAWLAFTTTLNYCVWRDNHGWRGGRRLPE
runDescription: Binding to the peripheral benzodiazepine receptor
assayEndpoint: Kd

1. CN1C(=O)C(Cc2ccc3ccccc3c2)N=C(c2ccc(O)cc2)c2cc(Cl)ccc21 (stereo not shown) [Bz-423]    ~1 µM

###

System: Ramos B cells
runDescription: cells
Format: cell-based, human
experimentalSetup: Ramos B cells, 24 h, propidium iodide exclusion, flow cytometry; error ±5%; read-out: EC50 (μM), cell death
assayEndpoint: EC50

1) CN1C(=O)CN=C(c2ccc(O)cc2)c2cc(Cl)ccc21    > 80 µM
2) CN1C(=O)C(Cc2ccc3ccccc3c2)N=C(c2ccccc2)c2cc(Cl)ccc21 (centres unmarked)    > 80 µM

FYI, the data here is from patent US7144880B2.
